Where do the numbers come from? From patent US12071404B2.

molecular target: GPR17 (Homo sapiens); test: Calcium mobilization functional assay (GPR17 Ca2+ assay); format: cell-based; parameters: host or cells: Flp-In T-REx CHO; conditions: CHO hGPR17 cells, inhibition of 50 nM MDL29,951, Calcium 5 dye, FLIPR; read-out: Ca2+ assay pIC50 (converted)
Sequence (Q13304 whole entry): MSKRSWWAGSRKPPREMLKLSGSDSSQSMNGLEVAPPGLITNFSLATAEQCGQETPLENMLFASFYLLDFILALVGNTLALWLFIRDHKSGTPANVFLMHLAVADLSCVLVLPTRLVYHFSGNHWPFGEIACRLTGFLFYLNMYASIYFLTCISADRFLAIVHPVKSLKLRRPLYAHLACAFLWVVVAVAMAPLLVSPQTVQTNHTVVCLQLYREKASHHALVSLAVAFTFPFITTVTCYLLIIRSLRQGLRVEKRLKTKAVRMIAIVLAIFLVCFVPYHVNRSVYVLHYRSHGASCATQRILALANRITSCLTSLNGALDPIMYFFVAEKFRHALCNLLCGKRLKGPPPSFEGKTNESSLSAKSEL
What IC50 was measured for each of the following?

The examples below pair each entry with its known result.
>>> value_measured("O=S(=O)(Nc1ccc(F)c2nsnc12)c1c[nH]c2nc(Cl)ccc12")
"> 31.6 nM"
>>> value_measured("O=C1OCc2cc(F)c(NS(=O)(=O)c3c[nH]c4nc(Cl)ccc34)cc21")
"3.16 to 31.6 nM"
>>> value_measured("COc1nc(NS(=O)(=O)c2c[nH]c3c(F)c(Cl)ccc23)c(F)cc1F")
"3.16 to 31.6 nM"

// for each compound below, give its IC50
1. N#CCOc1cc(F)c(NS(=O)(=O)c2c[nH]c3c2ccc2cccnc23)cc1F
2. O=S(=O)(Nc1cccc2nsnc12)c1c[nH]c2cc(OCc3ccccc3)ccc12
3. N#Cc1ccc(NS(=O)(=O)c2c[nH]c3ccc(I)cc23)cc1
4. O=S(=O)(Nc1cc(Cl)ccc1F)c1c[nH]c2cc(Cl)ccc12
5. O=S(=O)(Nc1cccc2nsnc12)c1c[nH]c2cc(C(F)(F)F)ccc12
6. Cc1cnc(NS(=O)(=O)c2c[nH]c3cc(Cl)ccc23)c(F)c1
7. O=C1NCc2cc(F)c(NS(=O)(=O)c3c[nH]c4cc(Cl)ccc34)cc21

Result:
< 3.16 nM
> 31.6 nM
> 31.6 nM
> 31.6 nM
3.16 to 31.6 nM
3.16 to 31.6 nM
3.16 to 31.6 nM

Report IC50 for every entry below.
1. CS(=O)(=O)c1ccc2c(S(=O)(=O)Nc3ccc4c(c3)OC(F)(F)O4)c[nH]c2c1
2. N#Cc1cc(F)c(NS(=O)(=O)c2c[nH]c3cc(OCc4ccccc4)ccc23)cc1F
3. O=S(=O)(Nc1cccc(F)c1Cl)c1c[nH]c2nc(Cl)ccc12
4. O=S(=O)(Nc1cccc2nsnc12)c1c[nH]c2ncc(I)cc12
5. N#Cc1ccc(NS(=O)(=O)c2c[nH]c3cc(Cl)ccc23)c(F)c1

Result:
["> 31.6 nM", "< 3.16 nM", "> 31.6 nM", "3.16 to 31.6 nM", "< 3.16 nM"]
